System: Plasmodium falciparum
Test: GSK_TCMDC: Inhibition of Plasmodium falciparum 3D7 in whole erythrocytes, using parasite LDH activity as an index of growth.
Assay type: functional, organism-based
Details: Plasmodium falciparum, 3D7
In plain terms, low XC50, meaning strictly below 700 nM, gives condition met, and everything else gives condition not met.

>>> answer_label("O=C(NCC1CCN(Cc2cccc(C(F)(F)F)c2)C1)c1cc(-c2cccc(Cl)c2)cs1 (stereo not given)")
"condition not met"
>>> answer_label("CC(C)N(C(=O)CSc1nc2cc(Cl)ccc2c(=O)n1Cc1ccccc1)C(C)C")
"condition met"
>>> answer_label("COc1ccc(CNC2CCN(C)CC2)cc1-c1ccc(S(=O)(=O)NC2CCC2)cc1")
"condition not met"
>>> answer_label("Cc1ccc(/C=C/C(=O)NC2CCC(N3CCC(c4ccccc4C)CC3)CC2)cc1C (stereo not given)")
"condition not met"
>>> answer_label("C=CCn1c(Sc2ccc(C#N)c([N+](=O)[O-])c2)nnc1-c1ccc(Cl)cc1")
"condition met"
>>> answer_label("O=C(N[C@H]1CCN(Cc2ccc(OCCN3CCCC3)c(Cl)c2)C1)c1ccc(Cl)c(Cl)c1")
"condition not met"
>>> answer_label("CN(C)Cc1cccc(-c2ccc(NC(=O)c3ccc4c(=O)n(Cc5ccoc5)cnc4c3)cc2)c1")
"condition not met"
>>> answer_label("N#Cc1ccc(-c2ccc(C(=O)NCCCCN3CC=C(c4ccc5c(c4OCC4CC4)CCCC5)CC3)cc2)cc1")
"condition met"
>>> answer_label("Cc1cc(Br)c(OCCCON2C(=N)N=C(N)NC2(C)C)c(Br)c1")
"condition met"
>>> answer_label("Cc1cccc2nc(-c3cccc(-c4ccc(CNCc5ccc(S(C)(=O)=O)cc5)cc4)c3)[nH]c12")
"condition met"
>>> answer_label("Cc1[nH]c(C)c(-c2ccc(OCCCCSc3ccncc3)cc2)c(=O)c1Br")
"condition met"
>>> answer_label("Cc1ccc(OCC2CCN(c3ncc(C(=O)NC4CC4)cc3Cl)CC2)cc1")
"condition not met"
>>> answer_label("Oc1ccc(CCNc2nc(NCc3ccc4cc(Cl)ccc4c3)nc(N3CCNCC3)n2)cc1")
"condition not met"
>>> answer_label("O=C(Nc1cc(C(F)(F)F)ccc1Cl)c1ccc(Cn2cc(Br)cn2)cc1")
"condition not met"
>>> answer_label("CN1CCC(NCc2ccc(-c3ccc(S(=O)(=O)NC4CCC4)s3)cc2)CC1")
"condition not met"
>>> answer_label("Cc1nn(-c2ccccc2)nc1C(=O)NC1CCN(CCNC(=O)c2ccc(Cl)c(Cl)c2)CC1")
"condition not met"
>>> answer_label("COc1ccc(CC2(c3ccc(F)cc3)N=C(N)N(CCCc3cccnc3)C2=O)cc1 (stereo not given)")
"condition met"
>>> answer_label("Cc1cc(OCc2ccncc2)cc2c1C(=O)CC(C)(C)O2")
"condition met"
>>> answer_label("O=C(Nc1ccc(Cl)c(C(F)(F)F)c1)c1ccc(C(=O)Nc2ccc(Cl)c(C(F)(F)F)c2)cc1")
"condition not met"
>>> answer_label("Cc1cc(N2C(N)=NC(N)=NC2(C)C)ccc1Cl")
"condition met"
>>> answer_label("Cc1cc(-c2ccc3c(c2)CC[C@@H](N[C@@H](C)c2ccccc2)C3)cnc1N")
"condition not met"
>>> answer_label("COc1ccc2nc(C)cc(NCc3cccc4ccccc34)c2c1")
"condition met"
>>> answer_label("OC1CCN(c2cc(-c3ccccn3)nc(-c3ccccn3)n2)CC1")
"condition not met"
>>> answer_label("COc1cc2c(cc1S(=O)(=O)c1ccc(NC(=O)c3cc4ccccc4s3)cc1)CCN(C)CC2")
"condition not met"
>>> answer_label("COc1cccc(CN2CCCC(OC(c3ccccc3)c3ccccc3)C2)c1O (stereo not given)")
"condition not met"
>>> answer_label("CN(C)CCCNCc1ccc(-c2ccc(C(F)(F)F)cc2)cc1")
"condition not met"
>>> answer_label("O=c1cc(NCCCCNCc2cccc(Br)c2)[nH]c2ccccc12")
"condition not met"
>>> answer_label("COc1cccc(-c2cnc(N)c(-c3nc4ccc(F)cc4[nH]3)c2)c1")
"condition not met"
>>> answer_label("Oc1ccc(CCNCCCCCCNCCc2ccc(Cl)c(Cl)c2)cc1O")
"condition not met"
>>> answer_label("CCCCC(=O)Nc1nc2ccc([N+](=O)[O-])cc2s1")
"condition not met"
>>> answer_label("N#Cc1ccc(-c2ccc(C(=O)NCCCCN3CCC(c4ccncc4)CC3)cc2)cc1")
"condition not met"
>>> answer_label("c1cc2c3c(cccc3c1)NC(CCCCCCCCC1=Nc3cccc4cccc(c34)N1)=N2")
"condition not met"
>>> answer_label("c1ccc2cc3c(Nc4ccc(N5CCCCCC5)cc4)ccnc3cc2c1")
"condition not met"
>>> answer_label("O=C(NC1CC1)c1ccc2cc(C(=O)N3Cc4ccccc4C(c4ccccc4)C3)ccc2c1 (stereo not given)")
"condition not met"
>>> answer_label("COc1cc(-c2[nH]c(-c3ccc(OCCN(C)C)cc3)cc2-c2ccncc2)ccc1Cl")
"condition not met"
>>> answer_label("c1ccc(CCNCc2ccc(-c3ccc(CNC4CCN(Cc5ccccc5)CC4)cc3)nc2)cc1")
"condition met"
>>> answer_label("CCOc1ccc(-n2nc3c(Cl)nnc(-c4ccccc4)c3c2-c2ccccc2)cc1")
"condition met"

----------
Each entry below carries its recorded XC50.
System: Plasmodium falciparum
Experiment: GSK_TCMDC: Inhibition of Plasmodium falciparum 3D7 in whole erythrocytes, using parasite LDH activity as an index of growth.
Assay type: functional, organism-based
Conditions: Plasmodium falciparum, 3D7
Recorded Metric: XC50 (nM)

>>> measurement("Cc1ccc2[nH]c(-c3ccccc3)cc(=NN=Cc3cccnc3)c2c1")
691
>>> measurement("O=C(/C=C/c1cc(F)cc(C(F)(F)F)c1)N1CCC(CN2CCC(c3c[nH]c4ccccc34)CC2)CC1")
756
>>> measurement("CCOC(=O)c1c(C)noc1Nc1cccc(C)c1C")
416
>>> measurement("N=C(NCCCCCCCCNC(=N)Nc1ccc(Cl)cc1)Nc1ccc(Cl)cc1")
590
>>> measurement("CCNc1cc(C(=O)N[C@@H](Cc2ccccc2)[C@H](O)CN[C@@H](C)c2cccc(OC)c2)cc(N2CCCC2=O)c1")
769
>>> measurement("CN(C)Cc1ccc(-c2cc3c(-c4ccc(CN(C)C)cc4)ccnc3[nH]2)cc1")
887
>>> measurement("COc1ccc2cc(C(=O)Nc3ccc4c(c3)CCN(C3CCC3)CC4)ccc2c1")
838
>>> measurement("N#Cc1ccc2c(c1)CCN(CCC1CCC(NC(=O)/C=C/c3ccc4[nH]ccc4c3)CC1)CC2 (stereo not given)")
1060
>>> measurement("CCOc1ccc(CNCCCCCCNCc2ccc(OCC)c3ccccc23)c2ccccc12")
447
>>> measurement("CCc1ccc(-c2nc3cc(NC(=O)c4cc([N+](=O)[O-])cc([N+](=O)[O-])c4)ccc3o2)cc1")
932
>>> measurement("COc1cc(F)c2nccc([C@@H](O)CN3CCC(NC(=O)OCc4ccccc4)C(F)C3)c2c1 (stereo not given in full)")
407
>>> measurement("CCN(CC)C(=O)C1CCN(C(C(=O)N2CCN(CC(=O)N3CCCC3)CC2)c2cc3ccccc3o2)CC1 (stereo not given)")
707
>>> measurement("CC1Cc2ccccc2N1S(=O)(=O)c1cc(OCC(F)(F)F)ccc1OCC(F)(F)F (stereo not given)")
645
>>> measurement("Cc1ccc(CNc2cc(C(F)(F)F)nc(-c3ccc(S(C)(=O)=O)cc3)n2)cc1")
498
>>> measurement("CCCC(CNCc1cccc(C)c1)CNc1cc(=O)c2ccccc2[nH]1 (stereo not given)")
631
>>> measurement("COc1ccc2nc3cc(Cl)ccc3c(NCCCO)c2c1")
783
>>> measurement("CC1CCCC(Nc2noc(-c3sccc3Br)n2)C1 (stereo not given)")
689
>>> measurement("CCN(CCO)CCc1cccc(Nc2nccc(-c3c(-c4ccc(NC(=O)N(CC)CC)cc4)nn4ccccc34)n2)c1")
1110
>>> measurement("CN(C)CCNCc1nc(-c2ccc3c(Nc4ccc(Oc5ccccc5)cc4)ccnc3c2)cs1")
736
>>> measurement("O=C(Nc1ccc2c(c1)CCN(C1CCC1)CC2)c1ccc(-c2cn3ccccc3n2)cc1")
879

----------
Tested on: Plasmodium falciparum
Experiment: GSK_TCMDC: Inhibition of Plasmodium falciparum 3D7 in whole erythrocytes, using parasite LDH activity as an index of growth.
Format: functional, organism-based
Details: Plasmodium falciparum, 3D7
Recorded Metric: XC50

>>> measurement("Cc1nc(N)nc(N)c1-c1cc(Cl)c(Cl)c(Cl)c1")
"834 nM"
>>> measurement("O=C(NC(=O)c1ccccc1)NC1CCN(c2ccnc3cc(Cl)ccc23)C1 (stereo unspecified)")
"584 nM"
>>> measurement("CCN(CCCN1CCCCC1)c1cc(C)nc(Nc2cc(Cl)ccc2C)n1")
"633 nM"
>>> measurement("c1ccc(-c2nnc(-c3ccccn3)nc2NC2CCCCC2)cc1")
"910 nM"
>>> measurement("Cc1ccccc1C1CCN(c2ccc(C(=O)NC3CC3)cn2)CC1")
"846 nM"
>>> measurement("COCCNCc1cccc(C#Cc2cc3ncnc(Nc4ccc(OCc5cccc(F)c5)c(Cl)c4)c3s2)n1")
"739 nM"
